Values compiled from paper PMC5456262.

molecular target: LacY mutant 35C/245C (H35C/N245C) (Escherichia coli, UniProt P02920, H35C/N245C); experiment: NPG binding to mutant 35C/245C solubilized in DDM, stopped-flow Trp151→NPG FRET; conditions: Kd^app calculated = Kd(1 + kr/kf), DDM, cross-linked with Cu^2+
Sequence (P02920 whole entry H35C/N245C): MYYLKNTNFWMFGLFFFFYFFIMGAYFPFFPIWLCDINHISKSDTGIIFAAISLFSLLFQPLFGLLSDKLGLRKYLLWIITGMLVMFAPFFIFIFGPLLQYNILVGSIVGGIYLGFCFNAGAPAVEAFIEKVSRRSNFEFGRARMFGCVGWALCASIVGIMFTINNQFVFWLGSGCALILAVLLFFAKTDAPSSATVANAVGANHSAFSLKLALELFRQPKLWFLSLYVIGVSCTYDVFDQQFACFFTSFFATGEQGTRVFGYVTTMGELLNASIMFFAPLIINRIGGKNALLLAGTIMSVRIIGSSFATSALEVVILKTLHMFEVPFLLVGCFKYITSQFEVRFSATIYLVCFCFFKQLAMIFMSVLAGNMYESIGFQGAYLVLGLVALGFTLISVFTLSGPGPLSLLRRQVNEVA
MEASURE: pKd
The read-out pKd is expressed as -log10 of concentration in moles per litre.

# lookup: O=[N+]([O-])c1ccc(O[C@H]2O[C@H](CO)[C@H](O)[C@H](O)[C@H]2O)cc1 [NPG, 4-nitrophenyl α-D-galactopyranoside] on LacY mutant 35C/245C (H35C/N245C) (Escherichia coli, UniProt P02920, H35C/N245C), pKd = 4.04

* * *

target: LacY mutant 32C/245C (I32C/N245C) reconstituted into PL (Escherichia coli, UniProt P02920, I32C/N245C); assay: biochemical
Sequence (P02920 whole entry I32C/N245C): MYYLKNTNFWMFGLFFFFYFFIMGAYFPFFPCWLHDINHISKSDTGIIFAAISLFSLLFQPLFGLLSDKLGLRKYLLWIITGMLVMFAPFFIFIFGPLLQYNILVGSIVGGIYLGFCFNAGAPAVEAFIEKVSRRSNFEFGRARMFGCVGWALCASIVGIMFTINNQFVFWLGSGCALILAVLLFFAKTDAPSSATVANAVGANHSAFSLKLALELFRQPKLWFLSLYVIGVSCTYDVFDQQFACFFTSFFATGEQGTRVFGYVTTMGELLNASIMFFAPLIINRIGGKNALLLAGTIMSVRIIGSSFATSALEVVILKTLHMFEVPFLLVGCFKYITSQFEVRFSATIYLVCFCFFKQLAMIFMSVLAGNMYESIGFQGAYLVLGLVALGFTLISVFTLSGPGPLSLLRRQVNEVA
MEASURE: pKd
Please note pKd is a logarithmic value: minus log10 of concentration in mol/L. Answer with that number alone.

Measured pKd, O=[N+]([O-])c1ccc(O[C@H]2O[C@H](CO)[C@H](O)[C@H](O)[C@H]2O)cc1 [NPG, 4-nitrophenyl α-D-galactopyranoside] : 5.15

* * *

target: LacY control mutants I32C, H35C, or N245C; experiment: Galactoside; conditions: range over three control mutants, presence or absence of Cu^2+
pKd: −log10 of the molar value.
MEASURE: pKd

pKd reading for O=[N+]([O-])c1ccc(O[C@H]2O[C@H](CO)[C@H](O)[C@H](O)[C@H]2O)cc1 [NPG, 4-nitrophenyl α-D-galactopyranoside] : 4.77 to 5.52

* * *

target: mutant 32C/245C LacY–Nb9065 complex in PL (Escherichia coli, UniProt P02920, I32C/N245C)
MEASURE: Kd (µM)
Express it in µM; write the number only.

Reported Kd of O=[N+]([O-])c1ccc(O[C@H]2O[C@H](CO)[C@H](O)[C@H](O)[C@H]2O)cc1 [NPG, 4-nitrophenyl α-D-galactopyranoside] : 6
